Origin of the recorded values: ChEMBL document CHEMBL1147821

Parameter IC50, tested on Proteasome Macropain subunit MB1 (Homo sapiens), listed per item.
Sequence (P28074 whole entry): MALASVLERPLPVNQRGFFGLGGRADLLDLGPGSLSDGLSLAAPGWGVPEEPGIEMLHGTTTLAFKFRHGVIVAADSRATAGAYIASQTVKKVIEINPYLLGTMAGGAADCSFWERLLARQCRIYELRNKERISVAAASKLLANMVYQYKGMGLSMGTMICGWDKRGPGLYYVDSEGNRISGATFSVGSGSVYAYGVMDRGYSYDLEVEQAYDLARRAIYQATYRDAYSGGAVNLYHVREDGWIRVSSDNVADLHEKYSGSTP
Could you give me the number in µM? Just the number is fine.

Use these answered entries as a reference point.
INSERT INTO measurements (compound_smiles, measured_value) VALUES
  ('CCOC(=O)/C=C/[C@H](CC(C)C)NC(=O)[C@H](CCC(N)=O)NC(=O)[C@H](Cc1ccccc1)NC(=O)c1cccc(O)c1C', 2.23),
  ('CCOC(=O)/C=C/[C@H](CC(C)C)NC(=O)[C@H](CCC(N)=O)NC(=O)[C@@H](NC(=O)c1cccc(O)c1C)C(C)C', 6.67),
  ('CCOC(=O)/C=C/[C@H](CC(C)C)NC(=O)[C@H](CCC(N)=O)NC(=O)[C@@H](NC(=O)[C@@H](N)Cc1ccccc1)C(C)C', 4.15),
  ('CC(C)C[C@@H](/C=C/S(C)(=O)=O)NC(=O)[C@H](CC(C)C)NC(=O)[C@H](CC(C)C)NC(=O)OCc1ccccc1', 0.061);

Quick note, IC50 for `CCOC(=O)/C=C/[C@H](CC(C)C)NC(=O)[C@H](CCC(N)=O)NC(=O)[C@@H](NC(=O)[C@@H](N)Cc1ccc(O)cc1)C(C)C` landed at 4.32
